# TARGET: T1, Human CD3eg linker (human)
# T1 construct: Single-chain construct; also called recombinant human CD3
# T1 chain: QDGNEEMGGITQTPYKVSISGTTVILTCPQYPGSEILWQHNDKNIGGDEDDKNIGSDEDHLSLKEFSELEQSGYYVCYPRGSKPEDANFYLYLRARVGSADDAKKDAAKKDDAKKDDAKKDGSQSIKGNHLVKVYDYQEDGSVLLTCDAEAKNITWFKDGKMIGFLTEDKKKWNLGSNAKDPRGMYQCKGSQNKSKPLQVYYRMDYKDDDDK
# ASSAY METHOD TEXT: SPR; fold vs parent H183/L072
PARAMETER MEASURED: fold change of affinity (fold)
Answers are plain numbers, in fold.

Example entries and their recorded answers appear below.
{"BINDER": "H183/L072 VL G91Q (antibody, name in Kabat numbering, V domains shown) VH: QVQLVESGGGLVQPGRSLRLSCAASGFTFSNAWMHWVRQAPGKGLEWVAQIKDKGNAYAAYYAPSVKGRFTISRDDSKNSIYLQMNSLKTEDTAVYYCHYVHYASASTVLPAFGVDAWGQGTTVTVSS VL: DIVMTQSPLSLPVTPGEPASISCQASQELVHMNRNTYLHWYQQKPGQAPRLLIYKVSNRFPGVPDRFSGSGSGTDFTLKISRVEAEDVGVYYCAQQTSVPFTFGQGTKLEIK", "fold change of affinity [fold]": 0}
{"BINDER": "H183/L072 VL L27bN (antibody, name in Kabat numbering, V domains shown) VH: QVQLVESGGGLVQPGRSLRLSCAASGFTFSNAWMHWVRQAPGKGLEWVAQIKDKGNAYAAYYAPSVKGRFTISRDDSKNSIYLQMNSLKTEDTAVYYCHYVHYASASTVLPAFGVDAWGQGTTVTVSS VL: DIVMTQSPLSLPVTPGEPASISCQASQENVHMNRNTYLHWYQQKPGQAPRLLIYKVSNRFPGVPDRFSGSGSGTDFTLKISRVEAEDVGVYYCAQGTSVPFTFGQGTKLEIK", "fold change of affinity [fold]": 0}
{"BINDER": "H183/L072 VL Q24K (antibody, name in Kabat numbering, V domains shown) VH: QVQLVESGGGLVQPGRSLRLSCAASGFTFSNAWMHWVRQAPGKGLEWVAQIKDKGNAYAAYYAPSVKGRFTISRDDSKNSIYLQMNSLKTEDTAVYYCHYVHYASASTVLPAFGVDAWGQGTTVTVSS VL: DIVMTQSPLSLPVTPGEPASISCKASQELVHMNRNTYLHWYQQKPGQAPRLLIYKVSNRFPGVPDRFSGSGSGTDFTLKISRVEAEDVGVYYCAQGTSVPFTFGQGTKLEIK", "fold change of affinity [fold]": 1}
{"BINDER": "H183/L072 VL T31I (antibody, name in Kabat numbering, V domains shown) VH: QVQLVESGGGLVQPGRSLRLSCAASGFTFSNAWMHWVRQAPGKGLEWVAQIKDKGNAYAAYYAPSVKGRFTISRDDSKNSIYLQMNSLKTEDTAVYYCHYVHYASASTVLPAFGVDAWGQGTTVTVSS VL: DIVMTQSPLSLPVTPGEPASISCQASQELVHMNRNIYLHWYQQKPGQAPRLLIYKVSNRFPGVPDRFSGSGSGTDFTLKISRVEAEDVGVYYCAQGTSVPFTFGQGTKLEIK", "fold change of affinity [fold]": 0.7}

Prompt: Item H183/L072 VL L27bK (antibody, name in Kabat numbering, V domains shown) VH: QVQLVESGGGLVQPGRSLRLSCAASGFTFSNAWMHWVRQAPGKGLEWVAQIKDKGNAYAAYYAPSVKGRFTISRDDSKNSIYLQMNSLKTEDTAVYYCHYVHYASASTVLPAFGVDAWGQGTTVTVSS VL: DIVMTQSPLSLPVTPGEPASISCQASQEKVHMNRNTYLHWYQQKPGQAPRLLIYKVSNRFPGVPDRFSGSGSGTDFTLKISRVEAEDVGVYYCAQGTSVPFTFGQGTKLEIK has what recorded fold change of affinity?
Completion: 0
